- Tested on: SK-MEL-2 melanoma
- ASSAY NOTES: NCI-60 one-dose screen, 48 h
- CONDITION NOTES: 10 µM unless noted
This is part of a sample that, as a whole, favours compounds with a hit. Of some 83,000 tested, about 20% had one in any assay. Activity calls are given as the source filed them. The calls were made as follows: active = growth percent below 10; inactive = the rest.
Labels: yes (1) (active), no (0) (inactive)

compound=Cn1cc(-c2csc(-c3cccc(F)c3)n2)c2cccnc21 assigned_category="yes (1)"
compound="CN1C(=O)N(C)C2C1NN=c1s/c(=C\\c3ccccc3)c(=O)n12 (stereo not drawn)" assigned_category="no (0)"
compound=N#Cc1c(N)nc2c(C#N)c(NC(=O)c3ccccc3)nn2c1-c1ccccc1 assigned_category="no (0)"

###

- Tested on: SF-295 CNS
- ASSAY NOTES: NCI-60 one-dose screen, 48 h
- CONDITION NOTES: 10 µM unless noted
- Procedure: Cells are grown in 96 well plates and exposed to the test compound for 48 hours. Compounds are tested at a single concentration, which is 10^-5 M for most compounds. The reported endpoint is percent growth (GI% or GIPRCNT), where numbers from 0 - 100% represent growth inhibition, and numbers from -100% - 0 represent cell death. For example, a value of 40 represents 60% growth inhibition. A value of 0 means no net growth occurred over the course of the experiment. […]
Compounds without any hit were thinned out: in the full panel of roughly 83,000, 20% have a hit. The source made the active and inactive calls. The calls were made as follows: active = growth percent below 10; inactive = the rest.
Labels: active, inactive

compound="CCN1C(=O)N(CC)C2Nn3c(s/c(=C\\c4ccc(Cl)cc4Cl)c3=O)=NC21 (stereo not given)" assigned_category=inactive
compound=COc1nc(N(C)O)nc(N(C)O)n1 assigned_category=inactive
compound=CCOC(=O)c1c2c(n3ccc(NC(=O)OC(C)(C)C)cc13)C(=O)c1ncccc1C2=O assigned_category=active
compound="COc1cc2c(cc1-c1c(C)noc1C)ncc1nc(C3CCC(F)(F)CC3)n(C3CCC(OC(F)F)CC3)c12 (stereo not given)" assigned_category=inactive
compound=CCOC(=O)c1ccc(N2NC(=O)/C(=C/c3ccc([N+](=O)[O-])o3)C2=O)cc1 assigned_category=inactive

###

- System: MCF7 breast
- ASSAY NOTES: NCI-60 one-dose screen, 48 h
- CONDITION NOTES: 10 µM unless noted
The panel holds about 83,000 compounds, 20% with a hit somewhere; the sample as a whole holds those more often. Calls of active or inactive are those of the source. How the source made its calls: active means growth percent below 10; inactive means the rest.
Labels: y for active, n for inactive

compound=COc1cccc(C(=O)NCCNc2cc(-c3cn(-c4ccccc4)nc3-c3cccc(OC)c3)ccn2)c1 assigned_category=n
compound="CC1CC2Oc3ccc(Cl)cc3C(=O)N2O1 (stereo not drawn)" assigned_category=n
compound="COCCc1ccc(OCC(O)CNC(C)C)cc1 (stereo not drawn)" assigned_category=n
compound=C[n+]1cccc(CC(=O)NO)c1 assigned_category=n
compound=O=c1ccn2nc3ccccc3c2[nH]1 assigned_category=n
compound="Nc1nc(N)c2c(n1)NC(c1ccccc1)C1CCc3ccccc3C1=N2 (stereo not drawn)" assigned_category=n
compound=Cc1c(Cl)cc(-n2c(=O)c3ccccc3c3ccccc3c2=O)cc1Cl assigned_category=n
compound=O=c1[nH][n+](-c2ccc(Cl)cc2)no1 assigned_category=n
compound="CN(c1ccccc1)c1ccc2c(c1)OCCC21CC1Nc1cnccc1C(=O)O (stereo not drawn)" assigned_category=n
compound=Cc1cccc(Cc2cnc(NC(=O)/C=C/c3ccco3)s2)c1 assigned_category=n
compound=COc1cc(/C=N/Nc2ncc(-c3cc4cc5c(cc4o3)OCO5)s2)cc(OC)c1OC assigned_category=n
compound=N#Cc1nc2c(S(=O)(=O)c3ccc(Cl)cc3)c(N)n(Nc3cccc(Cl)c3)c2nc1C#N assigned_category=n
compound=N#Cc1c(N)nc(NCCO)nc1-c1ccc(F)cc1 assigned_category=n
compound=Cn1cc(-c2csc(-c3ccccc3)n2)c2cccnc21 assigned_category=y
compound=Cc1ccccc1NC(=O)N/C(N)=N/c1nc(-c2cccc([N+](=O)[O-])c2)cs1 assigned_category=n
compound=COc1cc(-c2nc(N3CCN(C)CC3)c3ccccc3n2)cc(OC)c1OC assigned_category=n
compound=C(=N\Nc1ncc(-c2cc3cc4c(cc3o2)OCO4)s1)/c1ccco1 assigned_category=n
compound=C[C@H](NC(=O)[C@@H]1CSSC[C@@H](NC(=O)c2nc3ccccc3cc2O)C(=O)NCC(=O)N1C)c1ccccc1 assigned_category=y
compound=O=c1oc2ccccc2c(Cl)c1Cl assigned_category=n
compound="Cc1ccc(NS(=O)(=O)c2ccc3c(c2)C2OCCC2C(c2ccc(C(=O)C(C)C)cc2)N3)cc1C (stereo not drawn)" assigned_category=n
compound="N#CC1=C(c2ccc(Br)cc2)NC(SCC(=O)c2ccc(Br)cc2)NC1=O (stereo not drawn)" assigned_category=n
compound=Fc1cnc(NC2CC2)nc1-c1cnc2ccc(N3CCOCC3)cn12 assigned_category=y
compound=C=CCn1c(C)nc2cc(Nc3nc(N4CCCC4)nc4ccccc34)ccc21 assigned_category=n
compound=Cc1ccc(/C=C/c2c(C(=O)/C=C/c3ccc(C(F)(F)F)cc3)c(C)nc3ccccc23)cc1 assigned_category=y
compound=O=C1/C(=C\c2cccnc2)SC(=S)N1CCc1ccc(O)cc1 assigned_category=n
compound=O=C(c1ccccc1)c1c(/C=C/c2ccccc2)nc2ccccc2c1/C=C/c1ccc(Br)cc1 assigned_category=n
compound=COc1cc(/C=C/C(=O)c2c(C)nc3ccccc3c2C)ccc1OCCCN1CCN(C(=O)c2ccco2)CC1 assigned_category=n
compound=c1ccc(Nc2nc(-c3ccccn3)cs2)nc1 assigned_category=n
compound=COc1cccc(-c2nn(-c3ccccc3)cc2-c2ccnc(NCCCNC(=O)c3ccccc3)c2)c1 assigned_category=n
compound=Cc1ccc(/C=C/c2c(C(=O)/C=C/c3ccc(Cl)cc3)c(C)nc3ccccc23)cc1 assigned_category=n
compound=O=C(NCCCNc1cc(-c2cn(-c3ccccc3)nc2-c2cccc(O)c2)ccn1)c1ccc(F)cc1 assigned_category=n
compound=O=C(NCCCNc1cc(-c2cn(-c3ccccc3)nc2-c2cccc(O)c2)ccn1)c1ccccc1 assigned_category=n
compound=CS(=O)(=O)c1ccc(Nc2nc(N[C@H]3CCCC[C@H]3N)nc3cc[nH]c(=O)c23)cc1 assigned_category=y

###

- Test system: UO-31 renal
- ASSAY NOTES: NCI-60 one-dose screen, 48 h
- CONDITION NOTES: 10 µM unless noted
This is part of a sample that, as a whole, favours compounds with a hit. Of some 83,000 tested, about 20% had one in any assay. Activity calls are given as the source filed them. How the source made its calls: active means growth percent below 10; inactive means the rest.
Labels: t = active, f = inactive

compound=C[C@H]1[C@H]2[C@H]3CC[C@@H]4[C@@]5(C)C/C(=C/c6ccco6)C(=O)C(C)(C)[C@@H]5CC[C@@]4(C)[C@]3(C)CC[C@]23CO[C@]1(C)[C@@H](C(=O)/C=C\c1ccco1)C3 assigned_category=f
compound="COc1cc(C2NC(=O)c3ccccc3N2)ccc1OCCCCCOc1c(OC)cc(C2=NOC(c3cc(OC)c(OC)c(OC)c3)C2)cc1OC (centres undefined)" assigned_category=f
compound=COC(=O)[C@]12CC[C@@H](C)[C@H](C)[C@@H]1C1=CC[C@@H]3[C@@]4(C)C(C=O)=C[C@@](C)(COC(=O)/C=C/c5ccccc5)[C@@H]4[C@H](O)C[C@@]3(C)[C@]1(C)CC2 assigned_category=t
compound=COC(=O)/C=C1\S/C(=N\NS(=O)(=O)c2ccc(C)cc2)N(c2ccccc2)C1=O assigned_category=f
compound=Cc1ccc(-c2cc(-c3cccnc3)[nH]c(=O)c2C#N)cc1 assigned_category=f
compound=CC(=O)c1nc(Nc2ccc(C)cc2)sc1C assigned_category=f
compound=O=C1CCc2c(sc3[nH]c(=S)n(-c4ccc(OC(F)(F)F)cc4)c(=O)c23)C1 assigned_category=f
compound="COc1ccc(/C=N/C2=C(C#N)C(c3ccc(OC)cc3)c3ccc4ccccc4c3O2)cc1 (centres undefined)" assigned_category=f
compound="COc1ccc(C2=Nc3c(N)ncnc3NC(c3ccc4c(c3)OCO4)C2)cc1 (centres undefined)" assigned_category=f
compound=C[C@]12CC[C@@H]3c4cc(OC(F)F)c(O)cc4CC[C@H]3[C@@H]1CC[C@@H]2OS(N)(=O)=O assigned_category=f
compound="O=C(NC(Cc1nnc2n(Cc3ccccc3)c(=O)c3c4c(sc3n12)CCCC4)c1ccc(Cl)cc1)c1ccccc1 (centres undefined)" assigned_category=t
compound=Cc1cc(NCc2cc(Nc3ccnc4cc(Cl)ccc34)ccc2F)nc(N2CCN(C)CC2)n1 assigned_category=t
compound="CCCCN(CCCC)CC(C)(C)C(O)c1ccc(OC)c2ccccc12 (centres undefined)" assigned_category=f
compound="CC1CC(C(C)(C)C)C(=O)C(C(C)(C)C)C1 (centres undefined)" assigned_category=f

###

- System: HT29 colon
- ASSAY NOTES: NCI-60 one-dose screen, 48 h
- CONDITION NOTES: 10 µM unless noted
This is part of a sample that, as a whole, favours compounds with a hit. Of some 83,000 tested, about 20% had one in any assay. Calls of active or inactive are those of the source. Rule for the calls: active = growth percent below 10; inactive = the rest.
Labels: Yes (active), No (inactive)

molecule=COc1ccc(-c2nc(SCC(=O)Nc3nc(-c4ccccc4)cs3)[nH]c(=O)c2C#N)cc1 assigned_category=No
molecule=O=[N+]([O-])c1ccc(OCCO)cc1 assigned_category=No
molecule="COc1ccc(C2C(c3nn[nH]n3)=C(N)Oc3c2ccc2ccccc32)cc1 (centres undefined)" assigned_category=No
molecule=Cc1cc(C(=O)c2ccccc2)c(C)c2c1[nH]c1ccc(Cl)cc12 assigned_category=Yes
molecule=NC(=O)c1ccc[n+](Cc2ccc(Cl)cc2Cl)c1 assigned_category=No
molecule=COc1ccc(-c2cc(-c3cc(OC)ccc3OC)nc(SCC(=O)c3ccccc3)c2C#N)cc1 assigned_category=No
molecule=C=C1C(=O)O[C@H]2[C@H]1CC/C(COC(=O)C(=O)c1c[nH]c3ccccc13)=C\CC[C@@]1(C)O[C@@H]21 assigned_category=Yes
molecule=O=C(Nc1cccc(C(F)(F)F)c1)Nc1cccc(C(F)(F)F)c1 assigned_category=Yes
molecule=Cc1ccc2nc(C)c(-c3nnc(SCc4ccc(C#N)cc4)o3)n2c1 assigned_category=No
molecule="COc1cc(C2CC(=O)Nc3c2c(C)nn3-c2nc3ccccc3[nH]2)c(OC)c(OC)c1OC (centres undefined)" assigned_category=No
molecule=O=C(/C=C/c1c(Cl)nc2sccn12)c1nccs1 assigned_category=No
molecule=O=C(NCCNc1cc(-c2cn(-c3ccccc3)nc2-c2cccc(O)c2)ccn1)Nc1ccccc1 assigned_category=No
molecule=Oc1ccc(CN2CCC(N3CCOCC3)CC2)c2cccnc12 assigned_category=No
molecule=COc1cc2nc(Cl)nc(Nc3ccc(S(=O)(=O)Nc4nccs4)cc3)c2cc1OC assigned_category=No
molecule="COC(=O)[C@]12CC[C@@H](C)[C@H](C)[C@@H]1C1=CC[C@@H]3[C@@]4(C)C(C=O)=C[C@@](C)(COS(C)(=O)=O)C4[C@H](O)C[C@@]3(C)[C@]1(C)CC2 (some centres undefined)" assigned_category=Yes
molecule=Cc1cc(/C=C\c2ccc3ccccc3[n+]2C)c(O)c2ncccc12 assigned_category=No
molecule=Cc1cc(=O)[nH]c(N=Nc2c(O)[nH]c3ccccc23)n1 assigned_category=No
molecule=O=c1ssc(Cl)c1-c1ccccc1 assigned_category=No
molecule=O=C(Nc1ccccc1Cl)Oc1ccc(-c2ccccc2)cc1 assigned_category=No
molecule="CCN1C(=O)N(CC)C2Nn3c(s/c(=C\\c4ccc(Cl)cc4Cl)c3=O)=NC21 (centres undefined)" assigned_category=No
molecule=C=CCn1c(C)nc2cc(Nc3nc(Cl)nc4ccccc34)ccc21 assigned_category=No
molecule=Cc1cc(NCc2cc(Nc3ccnc4cc(Cl)ccc34)ccc2F)nc(Cl)n1 assigned_category=No
molecule=CCN(CCNc1ccc(C)c2sc3ccccc3c(=O)c12)CC(C)(C)O assigned_category=No
molecule="CC1=CN2C(=O)C3C4=C(CCCC4)SC3N=C2CN1c1c(C)cccc1C (centres undefined)" assigned_category=No
molecule="COc1cc(C2CC(c3ccc(Nc4ccnc5cc(Cl)ccc45)cc3)=NN2C=O)cc(OC)c1OC (centres undefined)" assigned_category=Yes
molecule=CCOC(=O)C/C(C)=N\NC(=O)c1ccncc1 assigned_category=No
molecule=NS(=O)(=O)c1ccc(-n2nc(C(=O)N/N=C\c3ccc(F)cc3)cc2-c2ccc(Cl)cc2)cc1 assigned_category=No
molecule=O=C(N/N=C/c1ccncc1)c1ccc(C(F)(F)F)nc1Nc1cccc(C(F)(F)F)c1 assigned_category=No
molecule=O=C(Nc1ccc(Cl)cc1)Nc1ccc(Cl)c(C(F)(F)F)c1 assigned_category=No
molecule=Cc1ccc(S(=O)(=O)NCC[C@@H]2C[C@H]2c2cc3ccccc3s2)cc1 assigned_category=No
molecule=COc1cc(/C=C/C(=O)c2c(C)nc3ccccc3c2C)ccc1OCCCN1CCN(C(=O)c2ccco2)CC1 assigned_category=Yes
molecule=COc1cccc(-c2nn(-c3ccccc3)cc2-c2ccnc(NCCCNC(=O)c3ccccc3)c2)c1 assigned_category=Yes
molecule="CC(=O)O[C@]1(C(C)=O)CCC2C3C[C@H](C)C4=CC(=O)CC[C@]4(C)C3CC[C@@]21C (some centres undefined)" assigned_category=No
molecule=CC(C)C(=O)Nc1n[nH]c2cc(-c3cccc(NS(=O)(=O)C4CC4)c3)ccc12 assigned_category=No
